Test system: vertebral blood flow
Experiment: Activity of increasing cerebral blood flow (vertebral blood flow), intravenous administration in anesthetized dogs
Assay type: in vivo
Conditions: 5 minutes after administration; 0.3 mg/kg, injected into femoral vein, anesthetized mongrel dogs
Structures can show the parent of a compound that is named as a salt.
parameterMeasured: Increase (%) in vertebral blood flow (mean ± standard error)
// note: answer is a bare numeric in %

COc1ccc(C=CCN2CCN(C(c3ccccc3)c3ccccc3)CC2)c(OC)c1OC.Cl.Cl [B]
58
COc1ccc(C=CCN2CCN(C(c3ccc(F)cc3)c3ccc(F)cc3)CC2)c(OC)c1OC.Cl.Cl [Compound A]
137
COc1ccc(C=CCN2CCN(C(c3ccccc3)c3ccccc3)CC2)c(OC)c1.O=C(O)/C=C/C(=O)O [D]
51
Fc1ccc(C(c2ccc(F)cc2)N2CCN(CC=Cc3ccccc3)CC2)cc1 [Flunarizine dihydrochloride, reference compound]
20
C(=Cc1ccccc1)CN1CCN(C(c2ccccc2)c2ccccc2)CC1 [Cinnarizine, reference compound]
5

Now look at this one.
Report measured Increase (%) in vertebral blood flow (mean ± standard error); entry is COc1ccc(C=CCN2CCN(C(c3ccc(F)cc3)c3ccc(F)cc3)CC2)c(OC)c1.O=C(O)/C=C/C(=O)O [C]
92

* * *

Tested on: vertebral blood flow
Assay: Activity of increasing cerebral blood flow (vertebral blood flow), intravenous administration in anesthetized dogs
Type: in vivo
Conditions: 1 minute after administration; 0.3 mg/kg, injected into femoral vein, anesthetized mongrel dogs
Protocol: The activity of increasing cerebral blood flow was measured by using the amount of vertebral blood flow as an index. […] The amount of blood flow was periodically measured [see Meth and Find Exptl Clin Pharmacol, 3 (6), 397 (1981)]. […] Furthermore, each of the test compounds was administered in a dose of 0.3 mg/kg, and increases (%) in vertebral blood flow were determined 1, 5, 10 and 20 minutes after the administration.
Structures can show the parent of a compound that is named as a salt.
Mark F for Increase (%) in vertebral blood flow (mean ± standard error) values under 80%, and T for everything at or above.

Example entries and their recorded answers appear below.
Fc1ccc(C(c2ccc(F)cc2)N2CCN(CC=Cc3ccccc3)CC2)cc1 [Flunarizine dihydrochloride, reference compound]
F
COc1ccc(C=CCN2CCN(C(c3ccc(F)cc3)c3ccc(F)cc3)CC2)c(OC)c1.O=C(O)/C=C/C(=O)O [C]
T
C(=Cc1ccccc1)CN1CCN(C(c2ccccc2)c2ccccc2)CC1 [Cinnarizine, reference compound]
F
COc1ccc(C=CCN2CCN(C(c3ccc(F)cc3)c3ccc(F)cc3)CC2)c(OC)c1OC.Cl.Cl [Compound A]
T
COc1ccc(C=CCN2CCN(C(c3ccccc3)c3ccccc3)CC2)c(OC)c1.O=C(O)/C=C/C(=O)O [D]
F

Now for a further compound.
Evaluate COc1ccc(C=CCN2CCN(C(c3ccccc3)c3ccccc3)CC2)c(OC)c1OC.Cl.Cl [B] : Increase (%) in vertebral blood flow (mean ± standard error) at minimum 80%?
F

* * *

Assay: in vivo
Conditions: mouse, oral, ddY-strain male mice, fasted 24 hours, deaths during seven days, Weil method, read-out: Acute toxicity LD50
Reported LD50 at 168 h values for a set of molecules
Write down the value, and be sure its unit follows.

COc1ccc(C=CCN2CCN(C(c3ccc(F)cc3)c3ccc(F)cc3)CC2)c(OC)c1OC.Cl.Cl
185 mg/kg
COc1ccc(C=CCN2CCN(C(c3ccccc3)c3ccccc3)CC2)c(OC)c1.O=C(O)/C=C/C(=O)O
773 mg/kg
COc1ccc(C=CCN2CCN(C(c3ccc(F)cc3)c3ccc(F)cc3)CC2)c(OC)c1.O=C(O)/C=C/C(=O)O
102 mg/kg

Next item in the queue.
State its LD50 at 168 h: "COc1ccc(C=CCN2CCN(C(c3ccccc3)c3ccccc3)CC2)c(OC)c1OC.Cl.Cl"
841 mg/kg
